Measured values drawn from the nanobody polyreactivity screen of Harvey et al. (2022) for this set.

# testName: yeast display, Sf9 membrane polyspecificity reagent, FACS + sequencing; frameworks hold sequencing errors

[
  {
    "residueString": "QVQLVESGGGLVQAGGSLRLSCAASGSTFVGYTMGWYIQAPGKERELVAAISRGGGSTYYADSVKGRFTISRDNAKNTVYLQMNSLKPEDTAVYYCAATGFYARLSSIYYYWGQGTQVTVSS",
    "polyreactivity (PSR sort gate)": "high polyreactivity"
  },
  {
    "residueString": "QVQLVESGGGLVQAGGSLRLSCAASGLIFIFNTMGWYRQAPGKERELVAAISWSGTSTYYADSVKGRFTISRDNAKNTVYLQMHSLKPEDTAVYYCAARGYYYKYSTARRNYWGQGTQVTVSS",
    "polyreactivity (PSR sort gate)": "high polyreactivity"
  }
]

----------
# testName: yeast display, Sf9 membrane polyspecificity reagent, FACS + sequencing; frameworks hold sequencing errors

[
  {
    "residueString": "QVQLVESGGGLVQAGGSLRLSCAASGFIFSAYAMGWYRQAPGKERELVAAISYSGGTTYYADSVKGRFTISRDNAKNTVYLQMNSLKPEDTAVYYCAAGVGYWGQGTQVTVSS",
    "polyreactivity (PSR sort gate)": "high polyreactivity"
  },
  {
    "residueString": "QVQLVESGGGLVQAGGSLRLSCAASGSTLATNAMGWYRQAPGKERELVAYADSVKGRFTISRDNAKNTVYLQMNSLNPEDTAVYYCNVVFRYAYGVYYTPEFYYWGQGTQVTVSS",
    "polyreactivity (PSR sort gate)": "low polyreactivity"
  },
  {
    "residueString": "QVQLVESGGGLVQAGGSLRLSCAASGFTFGVYAMGWYRQAPGKERELVAAISTTVGSTYYADSVKGRFTISRDNAKNTVYLQMNSLKPEDTAVYDCAAEYTGYINYYIYEYWGQGTQVTVSS",
    "polyreactivity (PSR sort gate)": "low polyreactivity"
  },
  {
    "residueString": "QVQLVESGGGLVQAGGSLRLSCAASGITFGKYAMGWYRQAPGKERELVAAISWSGGSTYYADSVKGRFTISRDNAKNTVYLQMNSLKPEDTAVYYCAASYPYRRGEFYYYRSSDDDYWGQGTQVTVSS",
    "polyreactivity (PSR sort gate)": "high polyreactivity"
  },
  {
    "residueString": "QVQLVESGGGLVQAGGSLRLSCAASGFTFPYYAMGWYRPAPGKDRELVARISSGGSTHYADSVKGRFTISRDNAKNTVYVQMNSLKPEDTADYYCAREPWWGYHGEYDYWGQGTEVTVSS",
    "polyreactivity (PSR sort gate)": "high polyreactivity"
  },
  {
    "residueString": "QVQLVESGGGLVQAGGSLRLSCAASGSTFLLYDKGWYRQAPGKERELVAAITWSGGSTYYADSVKGRFTISRDNAKNTVYVQMNSLIPEDTAVYYCAADSLGDRYYYWGQGTQVTVSS",
    "polyreactivity (PSR sort gate)": "low polyreactivity"
  },
  {
    "residueString": "QVQLVESGGGLVQAGGSLRLSCAASGLIFNLYAMGWYSQAPGKEREFVATITGIGGSTYYADSVKGRFTISRDNAKNTVYLQMNSLKPQDTAVYYCAADAWFLPYNYWGQGTQVTVSS",
    "polyreactivity (PSR sort gate)": "low polyreactivity"
  },
  {
    "residueString": "QVQLVESGGGLVQAGGSLRLSCAASGSIFTWYAMGWYRQAPGTERELVAAITRGGSTYADSVKGRFTISRDNAKNTVYLQMNSLKPEDTAVYYCNAVYGVYDFNYWGQGTQVTVSS",
    "polyreactivity (PSR sort gate)": "low polyreactivity"
  },
  {
    "residueString": "QVQLVESGGRLVQAGRSLRLSCAASGINFYGYAMGWYRQAPGKERELVAAITSYDGSTYYADSVKGRFTISRDNAKNTVYLQMNSLKPEDTAVYYCAAYRYGSRGGYWGQGTQVTVSS",
    "polyreactivity (PSR sort gate)": "high polyreactivity"
  },
  {
    "residueString": "QVQLVESGGGLDQAGCSLRLSWAASGITSYYNAMGWYRQAPGKERELVAAITSGGSTYYADSVKGRFTISRDNAKNTVYLQMNSLKPEVTAVYYCARRSRYLWRYDYWGQGTQVTVSS",
    "polyreactivity (PSR sort gate)": "high polyreactivity"
  },
  {
    "residueString": "QVQLVESGGGLVQAGGSLRLSCAASGRIFVSYTMGWYRQAPGKERELVAAISTDATTNYADSVKGRFTISRDNAKNTVYLQMNSLKPEDTAVYYCAADPFEYSYYTLYTSNPFYYWGQGTQVTVSS",
    "polyreactivity (PSR sort gate)": "low polyreactivity"
  }
]
